Test system: RXF 393 renal
Test: NCI tumour cell line growth inhibition, 48 h; in the data active means GI50 below about 0.43 µM; inactive means the rest
Write down one outcome, taken from active, inactive

Challenge: Kindly provide the recorded test outcome for the following compound: O=C1/C(=C/c2ccc(Cl)c(Cl)c2)CN(C(=O)CCN2CCC(=NO)CC2)C/C1=C\c1ccc(Cl)c(Cl)c1
Response given: inactive

Challenge: Repeat for the following compound: CC(=O)ON1CCCC(P(=O)(OCOC(=O)C(C)(C)C)OCOC(=O)C(C)(C)C)C1=O (centres undefined)
Response given: active

Challenge: Repeat for the following compound: O=C1c2cccc(Oc3ccccc3)c2C(=O)c2cccc(Oc3ccccc3)c21
Response given: inactive

Challenge: Repeat for the following compound: CC(=O)O[C@H]1C(=O)[C@@]2(C)C([C@H](OC(=O)c3ccccc3)[C@]3(O)C[C@H](OC(=O)[C@H](O)[C@@H](NC(=O)c4ccccc4)c4ccccc4)C(C)=C1C3(C)C)[C@]1(OC(C)=O)CO[C@@H]1C[C@@H]2O (some centres undefined)
Response given: active

---

The following compounds are listed with their measured GI50 values.
Tested on: DU-145 prostate
Assay: NCI tumour cell line growth inhibition, 48 h

Known results for compounds:
N#CC1c2ccccc2C=CN1C(=O)CCCl (stereo not drawn); 9.04 µM
COc1ccc(OC)c(NCC(=O)n2nc(/C=C\c3ccc(O)c(OC)c3)cc2/C=C\c2ccc(O)c(OC)c2)c1; 3.23 µM

We next turn to a different compound, shown below.
Challenge: Look at this compound and give its reported GI50. CCCCCOc1ccc(/C=N/Nc2cc(C)nc3ccc(Cl)cc23)cc1
Response given: 1.88 µM

---

Test system: A549 NSCLC
Test: NCI tumour cell line growth inhibition, 48 h
The following molecules are listed with their measured TGI values.

Known results for molecules:
S=C(Cc1ccc2c(c1)Sc1ccccc1O2)N1CCOCC1; > 100 µM
COc1ccc2c(c1)c(-c1nc(-c3c[nH]c4ncccc34)cs1)cn2CCCN1CCOCC1; 13.1 µM
COc1cccc(C2c3cc4c(cc3OC(O)C2C)OCO4)c1OC (stereo unspecified); 26 µM
CC1(C)N=C(N)N=C(N)N1c1ccc(CCC(=O)Nc2ccc(S(=O)(=O)F)cc2)cc1; > 100 µM
O=C(/C=C/c1ccc(Cl)cc1)Oc1ccc(C=C2CCC/C(=C\c3ccc(OC(=O)/C=C/c4ccc(Cl)cc4)cc3)C2=O)cc1; > 100 µM
CCCCCCN(CCCCCC)C(=S)N/N=C(\C)c1ccccn1; 3.66 µM
CO/N=C1\CC(NC(=O)C(F)(F)F)c2ccsc21 (stereo unspecified); > 100 µM
Cn1c([N+](=O)[O-])cnc1C=C1C(=O)c2ccccc2C1=O; 41.3 µM

Challenge: Look at this molecule and give its reported TGI. NC1=CC(=O)c2c(O)ccc(O)c2C1=O
Response given: 49.6 µM

Challenge: Repeat for the following molecule: COC(=O)c1ccccc1C1CN=NC12Cc1c(ccc(C)c1C)C2=O (stereo unspecified)
Response given: > 100 µM

Challenge: Repeat for the following molecule: CN1CSC(=S)N(c2cccc(C(F)(F)F)c2)C1
Response given: 73 µM

Challenge: Repeat for the following molecule: N#CC1(c2ccc(NC(=O)c3cccnc3NCc3ccncc3)cc2)CCCC1
Response given: > 79.7 µM

Challenge: Repeat for the following molecule: CCc1c(O)cc(=O)oc1-c1ccc(OC)c(OC)c1
Response given: > 100 µM

Challenge: Repeat for the following molecule: Cn1c2ccccc2c2ccc3c(c21)C(=O)c1ccc2c4ccccc4n(C)c2c1C3=O
Response given: > 100 µM

---

Tested on: LOX IMVI melanoma
Assay: NCI tumour cell line growth inhibition, 48 h
The following compounds are listed with their measured TGI values.

CC1=NN(C(=O)Cc2ccccc2)C(=O)/C1=C\c1ccc(O)cc1; > 100 µM

Challenge: Look at this compound and give its reported TGI. COC(=O)c1ccccc1C1CN=NC12Cc1c(ccc(C)c1C)C2=O (configuration not stated)
Response given: > 100 µM

Challenge: Repeat for the following compound: O=C(/C=C/c1ccc(O)c(O)c1)OCCc1ccc2ccccc2c1
Response given: 20.8 µM

Challenge: Repeat for the following compound: O=C1C=C[C@H](O)[C@@]2(CO)O[C@@H]12
Response given: 19.8 µM

Challenge: Repeat for the following compound: CSC1=Nc2c(c(C)c(C)n2COC(CO)CO)C2=NC(=O)CN12
Response given: > 100 µM

Challenge: Repeat for the following compound: COc1ccc(CNc2cnc3ccc(N)cc3n2)cc1
Response given: > 100 µM

Challenge: Repeat for the following compound: S=C(Cc1ccc2c(c1)Sc1ccccc1O2)N1CCOCC1
Response given: > 100 µM

Challenge: Repeat for the following compound: CC(=O)NNc1nc(C)c(C(=O)NNC(=O)C(=O)Nc2ccc([N+](=O)[O-])cc2[N+](=O)[O-])s1
Response given: > 100 µM

Challenge: Repeat for the following compound: CC(C)C(Br)CCC1=CCC(Br)(Br)C1 (configuration not stated)
Response given: 3.05 µM

Challenge: Repeat for the following compound: CCc1ccccc1NC(=O)c1cccc([N+](=O)[O-])c1O
Response given: 55.6 µM

Challenge: Repeat for the following compound: COc1ccc(N=Nc2c(-c3c(OC)cc4occc4c3OC)[nH]c(=O)c(C#N)c2C)cc1
Response given: > 100 µM

Challenge: Repeat for the following compound: CCCCCOc1ccc(/C=N/Nc2cc(C)nc3ccc(Cl)cc23)cc1
Response given: 3.15 µM

---

The following compounds are listed with their measured TGI values.
System: HOP-18 NSCLC
Experiment: NCI tumour cell line growth inhibition, 48 h

CN(C)c1nc(Oc2nc(N(C)C)nc(N(C)C)n2)nc(N(C)C)n1; > 100 µM

Challenge: Look at this compound and give its reported TGI. CC1=C(C(=O)Nc2ccccc2)C(c2ccc(N(C)C)cc2)C(C(=O)Nc2ccccc2)=C(C)N1
Response given: > 100 µM

Challenge: Repeat for the following compound: O=[N+]([O-])c1ccc(C[P+]2(c3ccccc3)CCCCC2)cc1
Response given: > 100 µM

Challenge: Repeat for the following compound: CSCC[C@@H](NC(=O)[C@H](CC(C)C)NC(=O)C(Cc1cnc[nH]1)NC(=O)CNC(=O)[C@@H](NC(=O)[C@H](C)NC(=O)[C@H](Cc1c[nH]c2ccccc12)NC(=O)[C@H](CCC(N)=O)NC(=O)[C@@H](N)CC(N)=O)C(C)C)C(N)=O (stereo partly specified)
Response given: > 100 µM

Challenge: Repeat for the following compound: COc1cc2oc(-c3ccc(O)cc3)cc(=O)c2c(O)c1C1OC(CO)C(O)C(O)C1O (stereo unspecified)
Response given: > 100 µM

Challenge: Repeat for the following compound: O=C(NC1C(=O)NNC1c1cccc([N+](=O)[O-])c1)c1ccccc1 (stereo unspecified)
Response given: > 100 µM

Challenge: Repeat for the following compound: N#CC(C(=O)C(=O)Nc1c(Cl)cccc1Cl)c1ccccc1 (stereo unspecified)
Response given: > 100 µM

---

The following compounds are listed with their measured TGI values.
System: HOP-62 NSCLC
Test: NCI tumour cell line growth inhibition, 48 h

Known results for compounds:
Cc1nc2ccc(Cl)cc2c(-n2ccnc2)c1CCn1ccnc1; > 100 µM
COC1OC(C)C(NC(=O)OCC(Cl)(Cl)Cl)C2OC(C)(C)OC12 (centres undefined); > 100 µM

Challenge: Look at this compound and give its reported TGI. CCCCCCCCCCCCCCCCCCOc1ccccc1CC(=O)NCC[N+]1(C)CCOCC1
Response given: 26.8 µM

Challenge: Repeat for the following compound: O=C(/C=C/c1ccc(Cl)cc1)Oc1ccc(C=C2CCC/C(=C\c3ccc(OC(=O)/C=C/c4ccc(Cl)cc4)cc3)C2=O)cc1
Response given: > 100 µM

---

Tested on: UO-31 renal
Assay: NCI tumour cell line growth inhibition, 48 h; in the data active = GI50 below about 0.43 µM; inactive = the rest
Write down one outcome, taken from active, inactive

CC(=O)O[C@H]1C(=O)[C@@]2(C)C([C@H](OC(=O)c3ccccc3)[C@]3(O)C[C@H](OC(=O)[C@H](O)[C@@H](NC(=O)c4ccccc4)c4ccccc4)C(C)=C1C3(C)C)[C@]1(OC(C)=O)CO[C@@H]1C[C@@H]2O (stereo partly drawn); inactive
COC(=O)OC1C(O[C@H]2C[C@H]3[C@@H]4CC=C5C[C@@H](O)CC[C@]5(C)[C@H]4CC[C@]3(C)[C@H]2[C@H](C)C(=O)CCC(C)C)OCC(O)C1OC1OCC(O)C(O)C1OC(=O)c1ccc(OC)cc1 (stereo partly drawn); active

For the next question, use this molecule.
Challenge: Kindly provide the recorded test outcome for the following molecule: COc1ccc2c(c1)C(=O)c1c-2c(Nc2ccccc2OC)nc2ccccc12
Response given: inactive

---

Tested on: 786-0 renal
Assay: NCI tumour cell line growth inhibition, 48 h; in the data active = GI50 below about 0.43 µM; inactive = the rest
Write down one outcome, taken from True (active), False (inactive)

CN(C)CCCC1(c2ccc(F)cc2)OCc2cc(-c3cccc4[nH]ccc34)ccc21 (stereo not given); False
CCCCCCCCCCCC[N+]1(CCCCCCCCCCCC)CCCC(C)C1 (stereo not given); True

Challenge: Kindly provide the recorded test outcome for the following molecule: CCN(CC)Cc1cc(Nc2nc(NC3CCC(N(C)C)CC3)c3ccccc3n2)ccc1OC (stereo not given)
Response given: False

Challenge: Repeat for the following molecule: N#CC(C(=O)C(=O)Nc1c(Cl)cccc1Cl)c1ccccc1 (stereo not given)
Response given: False

Challenge: Repeat for the following molecule: Cc1cccc(NC(=O)c2sc3nc4c(cc3c2N)C(=O)CCC4)c1
Response given: False
